- test-method-notes: Acute lethality (LD50), intraperitoneal
- applied-conditions: mouse, in vivo; intraperitoneal (IP) in mice; read-out: LD50 (dose causing a 50% mortality)
measured-attribute: LD50 (mg/kg)
Answer in mg/kg, number only, no unit symbol.

Incoming: Can you look up the measured LD50 of COc1ccc2c(c[n+](C)c3c4cc5c(cc4ccc23)OCO5)c1OC [chelerythrine] for me?
Outgoing: 20

* * *

- Tested on: SQ20B cells
- test-method-notes: MTT cytotoxicity assay, SQ20B, dependence on exposure time
- Type: cell-based
- applied-conditions: Homo sapiens, exposed for 4 h, read-out: ED50 (the source's name)
measured-attribute: EC50
Note to self: number, then unit, no commentary.

Incoming: Can you look up the measured EC50 of "COc1ccc2c(c[n+](C)c3c4cc5c(cc4ccc23)OCO5)c1OC" for me?
Outgoing: 3.7 µM
